METHOD_SUMMARY: Inhibition of alpha glucosidase by UV-[…] spectroscopy
PROPERTY: pIC50
As a rule, pIC50 stands for the negative log10 of the concentration, concentration in M.

> print(dat)
                           substance.smiles  reading
1  COc1c(-c2ccc(O)c(O)c2)cc(O)c(-c2ccc(O)c(O)c2)c1O     5.54
2      O=c1c(-c2ccc(O)cc2)coc2cc(O)cc(O)c12     5.01
3  CC[C@H](C)C(=O)C[C@H]1C2=COC(C)=CC2=CC(=O)[C@]1(C)O     4.61
4  COc1c(-c2ccc(O)cc2)cc(O)c(-c2ccc(O)c(O)c2)c1O     5.31

Give pIC50 for `COc1c(-c2ccc(O)cc2)cc(O)c(-c2ccc(O)cc2)c1O` 6.05
